Molecular target: T1, recombinant mouse Clec4F (CLEC4F/CLECSF13), soluble extracellular domain Ala65-Gly548 (Mus musculus, UniProt P70194)
T1 construct: Clec4F (C-type lectin domain family 4, member F), mouse, soluble extracellular domain Ala65-Gly548; the oligomeric state of the bought protein was not measured here; also called mClec4F; mouse Kupffer cell receptor Clec4F; source: bought: R&D Systems (NS0-derived, mouse myeloma cell line)
T1 sequence (P70194 65-548): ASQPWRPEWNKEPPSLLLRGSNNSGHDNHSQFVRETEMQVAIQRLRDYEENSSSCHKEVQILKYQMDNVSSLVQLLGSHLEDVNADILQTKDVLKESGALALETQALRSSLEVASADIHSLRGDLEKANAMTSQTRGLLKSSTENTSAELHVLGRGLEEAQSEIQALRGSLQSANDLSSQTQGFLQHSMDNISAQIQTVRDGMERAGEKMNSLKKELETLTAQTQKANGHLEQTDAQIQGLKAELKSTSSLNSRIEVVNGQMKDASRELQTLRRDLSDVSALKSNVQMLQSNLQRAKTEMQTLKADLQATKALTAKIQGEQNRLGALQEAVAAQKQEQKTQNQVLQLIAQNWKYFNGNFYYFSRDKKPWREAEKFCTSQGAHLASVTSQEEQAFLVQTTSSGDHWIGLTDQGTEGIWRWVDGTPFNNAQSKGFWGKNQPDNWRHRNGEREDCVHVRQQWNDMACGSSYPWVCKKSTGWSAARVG
Test: SPR; Biacore T200; 400 RU of recombinant mouse Clec4F coupled to a CM5 chip; nanobodies flown at 30 ul/min at 1-400 nM; 1:1 binding model
Conditions: both partners purified
The following binders are listed with their measured koff values.
Output spec: scalar in s⁻¹, unitless text.

[in] Need koff, item Nb11.16 (VHH, also called R3-16; group G11; source: E. coli WK6 periplasm, purified (IMAC Ni-NTA, dialysis)) VHH: QVQLVESGGGLVQAGGSLRLSCVASGGTFSNYRMAWFRQAPGKEREFVSLITRSGGSTYYADSVKGRFTISRDNAKNTVSLQMNTLKPEDTAVYTCAATPRFDSYSNYIRTNGYDYWGQGTQVTVSS
[out] 0.00392

Attribution: paper PMC7937711
